B1: library; a variant is named by its letters at N, in order (parent)
chain: AATGTTGTTGATGCAACCATAAAGTGATATTTAATAATTATTTATAATCAGCAACTTAACCACAAAACAACCATATATTGATATNTCACAAAACAACCATAANTTGATATTTTTGTGAATCGAGTATTTCAGCAAAACTACTGCAGTAAGAA

Variants of: B1
experimental details: relative integration efficiency (T-LR orientation) vs wild-type transposon end (log2 (normalized fold change)); transposon end mutated: left end; higher = more efficient transposition
condition: with VchCAST RNA-guided transposition machinery (E. coli BL21(DE3) host, lacZ target)
Consider the following variants and their measured relative integration efficiency (log2) readings.
Please respond with just the number, no unit label.

TA G24A T30A T76A T78G C87A A102T T111C T113C : -0.298
CG T39A : 0.147

Recorded relative integration efficiency (log2) for CG T35C , please?
-0.112

Thanks! And CG T108A A109T ?
-0.852

Thanks! And CG T45C T48C G51T C52A C55G T57G A59T C60A C61T A62T C63T A66C A67T ?
-0.402

Thanks! And TG A16C G24T T30A A70C T76A T84A C87A ?
-0.916

Thanks! And CG C98A ?
-0.338

Thanks! And CG C94G A95T ?
-2.11

Thanks! And CG A34G ?
-0.187

Thanks! And CG G115C T116A G117C A118T ?
0.334

Thanks! And TG A22T G24T T31C A33C T76A T78G C87A ?
1.14
